System: CEM cells HIV-1 protection, formazan growth assay
experimental.protocol: NCI AIDS Antiviral Assay;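 active means compounds giving half or more protection of infected cells from virus-caused growth loss, again on retest; inactive means the rest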
Description: The ability of compounds to protect human CEM cells from HIV-1 infection is measured as a screen for new compounds capable of inhibiting the HIV virus. Five concentrations of drug were tested on uninfected and infected cells and cell growth was measured using a soluble formazan assay. […] Compounds that provided at least 50% protection were retested. Compounds that provided at least 50% protection on retest were listed as moderately active. […]
The reply should be one of these categories: 1 (yes) (active), 0 (no) (inactive)

Below are worked cases with known answers.
COc1cc(C2C3=C(CCCC3=O)N(c3ccc(C)cc3)C3=C2C(=O)CCC3)c([N+](=O)[O-])cc1OC : 0 (no)
O=c1oc2cccnc2n1CCN1CCN(c2ccc(Oc3ccccc3)cc2)CC1 : 0 (no)
O=[N+]([O-])c1ncnc2c1ncn2C1OC(CO)CC1F (stereo not drawn) : 0 (no)
O=C(Nc1cccc(Cl)c1)C(=O)C(C(=O)c1ccc2ccccc2c1)C1OC(=O)c2ccccc21 (stereo not drawn) : 0 (no)
O=c1c(Cl)cc2nc3ccccc3sc-2c1Cl : 0 (no)
CCCCC(Sc1cc(Cl)c(C)cc1S(=O)(=O)Nc1n[nH]c(N)n1)C(=O)OC (stereo not drawn) : 0 (no)
COC(CN1CCOCCOCCOCC1)CN1CCOCCOCCOCC1 : 0 (no)
CC1(C)OCC(C2OC(N3O[C@H](CI)C[C@@H]3c3ccccc3)C3OC(C)(C)OC23)O1 (stereo partly drawn) : 0 (no)

Continue with the compound presented below.
Asked: Please indicate how the test categorized CCCCCCCC1(N=[N+]=[N-])C(=O)c2ccccc2N(C)C1=O (stereo not drawn) .
Given back: 1 (yes)

====

Tested on: CEM cells HIV-1 protection, formazan growth assay
experimental.protocol: NCI AIDS Antiviral Assay
test.context: measured here: growth of uninfected CEM cells
Listing of recorded IC50 by entry.

O=C1/C(=C/c2cccc(Cl)c2)CCc2ccccc21 : > 10 µM
CC[C@@H](C)C(=O)O[C@H]1[C@H](O)[C@H]2[C@@H](CN3C[C@@H](C)CC[C@H]3[C@@]2(C)O)[C@@H]2CC34O[C@]5(O)[C@@H](OC(=O)[C@@](C)(O)CC)CC[C@@]3(C)[C@@H]5[C@@H](OC(C)=O)[C@@H](OC(C)=O)[C@H]4[C@@]21O : > 200 µM
OCC(Cn1cncn1)(c1ccc(F)cc1F)n1cncn1 (stereo not drawn) : > 200 µM

Continue with the next compound.
Asked: I would be grateful if you could share the reported IC50 for Cc1ccc(S(=O)(=O)OC2C3C=CC2C2CSCC32)cc1 (stereo not drawn) .
Given back: > 100 µM

====

Test system: CEM cells HIV-1 protection, formazan growth assay
experimental.protocol: NCI AIDS Antiviral Assay
test.context: measured here: growth of uninfected CEM cells
Listing of recorded IC50 by entry.

Solved cases (5 shown):
CC1(C)COC(C2Cc3ccccc3C(O)(c3ccccc3)C2)=N1 (configuration not stated) : > 200 µM
CCCCCCCCCCCCCCCCCCNC(=S)NC=C(C(N)=O)C(N)=O : > 100 µM
CCOC(=O)C1(C(=O)OCC)C[C@@H](C)[C@@H](O)C1 : > 200 µM
COC1OC(C(C)O)C2OC(C)(C)OC12 (configuration not stated) : > 200 µM
COC(=O)c1c2c(cc3c1CC1(Cc4cc5c(c(C)c4C1)CCC5)C3)CCC2 (configuration not stated) : > 200 µM

Asked: I would be grateful if you could share the reported IC50 for `O=C(CSc1c2ccccc2nc2ccccc12)Nc1ccccc1-c1ccccc1NC(=O)CSc1c2ccccc2nc2ccccc12` .
Given back: > 1.91 µM

Asked: What about this compound? `O=C(NCCCl)Nc1ccccn1`
Given back: > 200 µM

====

System: CEM cells HIV-1 protection, formazan growth assay
experimental.protocol: NCI AIDS Antiviral Assay
test.context: measured here: growth of uninfected CEM cells
pIC50: −log10 of the molar value.
Listing of recorded pIC50 by entry.

Solved cases (6 shown):
COc1ccc(/C=C/C(=O)CC(=O)/C=C/c2ccc(OC)cc2)cc1 : < 3.70
O=C(O)c1ccc([N+](=O)[O-])cc1S(=O)(=O)O : < 3.70
CC1(C)C2C=CC1C(=O)CC2 (configuration not stated) : < 3.41
Cc1cc(C)c(P2C(=C(O[Si](C(C)C)(C(C)C)C(C)C)C(C)(C)C)C2(c2ccccc2)c2ccccc2)c(C)c1 (configuration not stated) : < 4.00
CCOC(=O)C12CCSC1C1(C#N)C(C#N)=CC2(N=P(c2ccccc2)(c2ccccc2)c2ccccc2)n2c(=O)n(-c3ccccc3)c(=O)n21 (configuration not stated) : < 4.58
O=C(O)c1ccc2nc(-c3ccccn3)c(-c3ccccn3)nc2c1 : < 3.70

Asked: I would be grateful if you could share the reported pIC50 for NC(CCCCNCc1ccccc1)C(=O)O (configuration not stated) .
Given back: < 2.98

Asked: What about this compound? CC(=O)OC1C(COC(N)=O)OC(n2c(-c3ccc(C)cc3)cc(-c3ccccc3)c(C#N)c2=O)C(OC(C)=O)C1OC(C)=O (configuration not stated)
Given back: < 4.94

Asked: What about this compound? `CCOP(=O)(OCC)/C(F)=C/c1ccccc1`
Given back: < 3.70

Asked: What about this compound? CC1=NOC2(C1)/C(=N/O)CCC/C2=N\O (configuration not stated)
Given back: < 3.70

Asked: What about this compound? `CCOC(=O)/C(C#N)=C/N(CC)/N=C/c1ccccc1`
Given back: < 3.70

Asked: What about this compound? `N#C/C(=C\NC(=S)Nc1cc(Cl)ccc1Cl)C(=O)c1ccc2ccccc2c1`
Given back: < 4.00

====

Tested on: CEM cells HIV-1 protection, formazan growth assay
experimental.protocol: NCI AIDS Antiviral Assay
test.context: measured here: growth of uninfected CEM cells
pIC50: −log10 of the molar value.
recorded.endpoint: pIC50

Solved cases (5 shown):
O=C(NCCCCNCCCNC(=O)C(F)(F)F)C(F)(F)F : < 3.70
CCOC(=O)C(=CNC(=S)Nc1cc(C)ccc1C)C(=O)OCC : < 3.70
CCCCNC1CCCCC[C@H]1O (stereo partly drawn) : < 2.95
CCCCOC(=O)NC(=O)c1cc2cc(Cl)cc(Cl)c2oc1=O : < 4.86
O=P(O)(O)CCCNO : < 3.70

Asked: I would be grateful if you could share the reported pIC50 for C=CC1OC(CCCOC(=O)C(C)(C)C)O[C@@H]1CC (stereo partly drawn) .
Given back: < 3.70

Asked: What about this compound? `O=c1c(-c2ccc3c(c2)OCO3)coc2cc(O)ccc12`
Given back: < 3.70

Asked: What about this compound? C=CCN(CC=C)CC(C(C)=O)C(c1ccccc1)c1c(O)c2ccccc2oc1=O (stereo not drawn)
Given back: < 5.94

Asked: What about this compound? `O=[N+]([O-])c1ccc(-n2nnc(C3=NCCN3)c2-c2ccccc2)cc1`
Given back: < 4.52

Asked: What about this compound? `O=C(Nc1cc(C(=O)Nc2cccc(S(=O)(=O)O)c2)cc(C(=O)Nc2cccc(S(=O)(=O)O)c2)c1)c1cccc(C(=O)Nc2cc(C(=O)Nc3cccc(S(=O)(=O)O)c3)cc(C(=O)Nc3cccc(S(=O)(=O)O)c3)c2)c1`
Given back: < 4.00

====

System: CEM cells HIV-1 protection, formazan growth assay
experimental.protocol: NCI AIDS Antiviral Assay
Listing of recorded EC50 by entry.

Solved cases (5 shown):
COc1ccccc1/C=c1\[nH]c(=O)/c(=C/c2ccccc2OC)[nH]c1=O : > 28.2 µM
O=C1NC(=O)C(SSC2C(=O)NC(=O)NC2=O)C(=O)N1 : > 200 µM
C[n+]1c2cc(N)ccc2cc2ccc(N)cc21 (tested in a mixture with another compound) : > 200 µM
O=C(O)c1nc2ccc(C(F)(F)F)cc2nc1NCc1ccc(Cl)c(Cl)c1 : > 200 µM
CCSC1=N/C(=C/c2ccccc2O)C(=O)N1 : > 200 µM

Asked: I would be grateful if you could share the reported EC50 for `O=C(/C=C/c1c(O)ccc2ccccc12)c1ccc2ccccc2c1` .
Given back: > 112 µM

Asked: What about this compound? NC1NCCC(=O)N1CCc1c[nH]c2ccccc12 (stereo unspecified)
Given back: > 200 µM

Asked: What about this compound? COC(=O)C(=O)C(C(=O)C(=O)Nc1ccc([N+](=O)[O-])cc1[N+](=O)[O-])c1nc2ccc([N+](=O)[O-])cc2[nH]c1=O (stereo unspecified)
Given back: > 468 µM

Asked: What about this compound? `c1ccc(COc2ccc(C[P+](c3ccccc3)(c3ccccc3)c3ccccc3)cc2)cc1`
Given back: > 20 µM

Asked: What about this compound? `COCn1c2ccc(OC(C)=O)cc2c2c(=O)oc(C)nc21`
Given back: > 200 µM

====

Listing of recorded pIC50 by entry.
System: CEM cells HIV-1 protection, formazan growth assay
experimental.protocol: NCI AIDS Antiviral Assay
test.context: measured here: growth of uninfected CEM cells
pIC50: −log10 of the molar value.

COc1cc2c(cc1O)-c1[nH]ncc1CCC2 : < 4.36
COC(=O)N1C2CCCCC2=NN(c2ccccc2)N1C(=O)OC (stereo unspecified) : < 3.69
Cc1ncc([N+](=O)[O-])n1CCNC(=O)Cn1ccnc1[N+](=O)[O-] : < 3.70
CC(=O)C(CCC#N)(CCC#N)CCC#N : < 3.70
Cc1ccc(S(=O)(=O)/C(C#N)=C\N2CC(=O)NC2=S)cc1 : < 3.70

Continue with the next compound.
Asked: I would be grateful if you could share the reported pIC50 for CCC(C)C(N)CO (stereo unspecified) .
Given back: < 3.70
